- assay details: Prodrug activation in PBS at pH 7.4 assessed as drug release by measuring maximal fluorescence change at 10 uM in presence of 1 mM GSH measured after 20 mins relative to control
- particulars: buffer, pH 7.4, 20 min
// reported Activity for each item listed
Write the number in % without appending the unit.

Record `C=C(COc1ccccc1)C(=O)c1ccc2cc(N(C)C)ccc2c1` , field Activity: 70.1

Record `C=C(CSc1ccccc1)C(=O)c1ccc2cc(N(C)C)ccc2c1` , field Activity: 53.5

Record `C=C(C[N+](C)(C)Cc1ccccc1)C(=O)c1ccc2cc(N(C)C)ccc2c1.[Br-]` , field Activity: 90.6

Record `C=C(COC(=O)OCc1ccccc1)C(=O)c1ccc2cc(N(C)C)ccc2c1` , field Activity: 65.4

Record `C=C(COC(=O)Nc1ccccc1)C(=O)c1ccc2cc(N(C)C)ccc2c1` , field Activity: 64.6

Record `C=C(CN(C)Cc1ccccc1)C(=O)c1ccc2cc(N(C)C)ccc2c1` , field Activity: 72.5

Record `C=C(COC(=O)Cc1ccccc1)C(=O)c1ccc2cc(N(C)C)ccc2c1` , field Activity: 71.5

* * *

// reported Activity for each item listed
- assay details: Prodrug activation in PBS at pH 7.4 assessed as drug release at 10 uM in presence of 1 mM GSH measured after 40 mins by HPLC analysis relative to control
- particulars: buffer, pH 7.4, 40 min
Write the number in % without appending the unit.

[
  {
    "smiles str": "C=C(CN(C)Cc1ccccc1)C(=O)c1ccc2cc(N(C)C)ccc2c1",
    "units of measure": "%",
    "Activity": 92
  },
  {
    "smiles str": "C=C(CSc1ccccc1)C(=O)c1ccc2cc(N(C)C)ccc2c1",
    "units of measure": "%",
    "Activity": 95.1
  },
  {
    "smiles str": "C=C(COC(=O)OCc1ccccc1)C(=O)c1ccc2cc(N(C)C)ccc2c1",
    "units of measure": "%",
    "Activity": 94.6
  },
  {
    "smiles str": "C=C(COC(=O)Nc1ccccc1)C(=O)c1ccc2cc(N(C)C)ccc2c1",
    "units of measure": "%",
    "Activity": 97.1
  },
  {
    "smiles str": "C=C(C[N+](C)(C)Cc1ccccc1)C(=O)c1ccc2cc(N(C)C)ccc2c1.[Br-]",
    "units of measure": "%",
    "Activity": 98.5
  }
]

Record `C=C(COc1ccccc1)C(=O)c1ccc2cc(N(C)C)ccc2c1` , field Activity: 92.7

Record `C=C(COC(=O)Cc1ccccc1)C(=O)c1ccc2cc(N(C)C)ccc2c1` , field Activity: 97.5

* * *

// reported Activity for each item listed
- assay details: Prodrug activation in PBS at pH 7.4 assessed as drug release by measuring maximal fluorescence change at 10 uM in presence of 1 mM GSH measured after 30 mins relative to control
- particulars: buffer, pH 7.4, 0.5 h
Write the number in % without appending the unit.

# annotated cases, reported Activity shown
[
  {
    "smiles str": "C=C(CSc1ccccc1)C(=O)c1ccc2cc(N(C)C)ccc2c1",
    "units of measure": "%",
    "Activity": 72.2
  },
  {
    "smiles str": "C=C(COC(=O)Nc1ccccc1)C(=O)c1ccc2cc(N(C)C)ccc2c1",
    "units of measure": "%",
    "Activity": 79.9
  },
  {
    "smiles str": "C=C(COC(=O)Cc1ccccc1)C(=O)c1ccc2cc(N(C)C)ccc2c1",
    "units of measure": "%",
    "Activity": 89.2
  },
  {
    "smiles str": "C=C(COC(=O)OCc1ccccc1)C(=O)c1ccc2cc(N(C)C)ccc2c1",
    "units of measure": "%",
    "Activity": 83.6
  },
  {
    "smiles str": "C=C(COc1ccccc1)C(=O)c1ccc2cc(N(C)C)ccc2c1",
    "units of measure": "%",
    "Activity": 87.9
  },
  {
    "smiles str": "C=C(C[N+](C)(C)Cc1ccccc1)C(=O)c1ccc2cc(N(C)C)ccc2c1.[Br-]",
    "units of measure": "%",
    "Activity": 90.6
  }
]

Switching to the query record.
Record `C=C(CN(C)Cc1ccccc1)C(=O)c1ccc2cc(N(C)C)ccc2c1` , field Activity: 85.1

* * *

- assay details: Prodrug activation in PBS at pH 7.4 assessed as drug release at 10 uM in presence of 1 mM GSH measured after 50 mins by HPLC analysis relative to control
- particulars: buffer, pH 7.4, 50 min
measure name: Activity (%)
Write the number in % without appending the unit.

[
  {
    "smiles str": "C=C(COc1ccccc1)C(=O)c1ccc2cc(N(C)C)ccc2c1",
    "measurement": 93.2
  }
]

Switching to the query record.
Record `C=C(COC(=O)OCc1ccccc1)C(=O)c1ccc2cc(N(C)C)ccc2c1` , field Activity: 94.6

* * *

- assay details: Prodrug activation in PBS at pH 7.4 assessed as drug release by measuring maximal fluorescence change at 10 uM in presence of 1 mM GSH measured after 40 mins relative to control
- particulars: buffer, pH 7.4, 40 min
// reported Activity for each item listed
Write the number in % without appending the unit.

# annotated cases, reported Activity shown
[
  {
    "smiles str": "C=C(C[N+](C)(C)Cc1ccccc1)C(=O)c1ccc2cc(N(C)C)ccc2c1.[Br-]",
    "units of measure": "%",
    "Activity": 97.2
  },
  {
    "smiles str": "C=C(CSc1ccccc1)C(=O)c1ccc2cc(N(C)C)ccc2c1",
    "units of measure": "%",
    "Activity": 86.3
  },
  {
    "smiles str": "C=C(COC(=O)OCc1ccccc1)C(=O)c1ccc2cc(N(C)C)ccc2c1",
    "units of measure": "%",
    "Activity": 96.5
  },
  {
    "smiles str": "C=C(COc1ccccc1)C(=O)c1ccc2cc(N(C)C)ccc2c1",
    "units of measure": "%",
    "Activity": 95.5
  },
  {
    "smiles str": "C=C(COC(=O)Cc1ccccc1)C(=O)c1ccc2cc(N(C)C)ccc2c1",
    "units of measure": "%",
    "Activity": 95.3
  }
]

Record `C=C(CN(C)Cc1ccccc1)C(=O)c1ccc2cc(N(C)C)ccc2c1` , field Activity: 93.5

Record `C=C(COC(=O)Nc1ccccc1)C(=O)c1ccc2cc(N(C)C)ccc2c1` , field Activity: 88.9

* * *

// reported Activity for each item listed
- assay details: Prodrug activation in PBS at pH 7.4 assessed as drug release at 10 uM in presence of 1 mM GSH measured after 50 mins by HPLC analysis relative to control
- particulars: buffer, pH 7.4, 50 min
Write the number in % without appending the unit.

# annotated cases, reported Activity shown
[
  {
    "smiles str": "C=C(COC(=O)Cc1ccccc1)C(=O)c1ccc2cc(N(C)C)ccc2c1",
    "units of measure": "%",
    "Activity": 98.7
  },
  {
    "smiles str": "C=C(CN(C)Cc1ccccc1)C(=O)c1ccc2cc(N(C)C)ccc2c1",
    "units of measure": "%",
    "Activity": 93.1
  },
  {
    "smiles str": "C=C(C[N+](C)(C)Cc1ccccc1)C(=O)c1ccc2cc(N(C)C)ccc2c1.[Br-]",
    "units of measure": "%",
    "Activity": 99.6
  },
  {
    "smiles str": "C=C(CSc1ccccc1)C(=O)c1ccc2cc(N(C)C)ccc2c1",
    "units of measure": "%",
    "Activity": 94.8
  }
]

Switching to the query record.
Record `C=C(COC(=O)Nc1ccccc1)C(=O)c1ccc2cc(N(C)C)ccc2c1` , field Activity: 97.9
